All figures here come from patent EP4813991A1.

Target: CDK12 (Homo sapiens)
Sequence (Q9NYV4 whole entry, species assumed): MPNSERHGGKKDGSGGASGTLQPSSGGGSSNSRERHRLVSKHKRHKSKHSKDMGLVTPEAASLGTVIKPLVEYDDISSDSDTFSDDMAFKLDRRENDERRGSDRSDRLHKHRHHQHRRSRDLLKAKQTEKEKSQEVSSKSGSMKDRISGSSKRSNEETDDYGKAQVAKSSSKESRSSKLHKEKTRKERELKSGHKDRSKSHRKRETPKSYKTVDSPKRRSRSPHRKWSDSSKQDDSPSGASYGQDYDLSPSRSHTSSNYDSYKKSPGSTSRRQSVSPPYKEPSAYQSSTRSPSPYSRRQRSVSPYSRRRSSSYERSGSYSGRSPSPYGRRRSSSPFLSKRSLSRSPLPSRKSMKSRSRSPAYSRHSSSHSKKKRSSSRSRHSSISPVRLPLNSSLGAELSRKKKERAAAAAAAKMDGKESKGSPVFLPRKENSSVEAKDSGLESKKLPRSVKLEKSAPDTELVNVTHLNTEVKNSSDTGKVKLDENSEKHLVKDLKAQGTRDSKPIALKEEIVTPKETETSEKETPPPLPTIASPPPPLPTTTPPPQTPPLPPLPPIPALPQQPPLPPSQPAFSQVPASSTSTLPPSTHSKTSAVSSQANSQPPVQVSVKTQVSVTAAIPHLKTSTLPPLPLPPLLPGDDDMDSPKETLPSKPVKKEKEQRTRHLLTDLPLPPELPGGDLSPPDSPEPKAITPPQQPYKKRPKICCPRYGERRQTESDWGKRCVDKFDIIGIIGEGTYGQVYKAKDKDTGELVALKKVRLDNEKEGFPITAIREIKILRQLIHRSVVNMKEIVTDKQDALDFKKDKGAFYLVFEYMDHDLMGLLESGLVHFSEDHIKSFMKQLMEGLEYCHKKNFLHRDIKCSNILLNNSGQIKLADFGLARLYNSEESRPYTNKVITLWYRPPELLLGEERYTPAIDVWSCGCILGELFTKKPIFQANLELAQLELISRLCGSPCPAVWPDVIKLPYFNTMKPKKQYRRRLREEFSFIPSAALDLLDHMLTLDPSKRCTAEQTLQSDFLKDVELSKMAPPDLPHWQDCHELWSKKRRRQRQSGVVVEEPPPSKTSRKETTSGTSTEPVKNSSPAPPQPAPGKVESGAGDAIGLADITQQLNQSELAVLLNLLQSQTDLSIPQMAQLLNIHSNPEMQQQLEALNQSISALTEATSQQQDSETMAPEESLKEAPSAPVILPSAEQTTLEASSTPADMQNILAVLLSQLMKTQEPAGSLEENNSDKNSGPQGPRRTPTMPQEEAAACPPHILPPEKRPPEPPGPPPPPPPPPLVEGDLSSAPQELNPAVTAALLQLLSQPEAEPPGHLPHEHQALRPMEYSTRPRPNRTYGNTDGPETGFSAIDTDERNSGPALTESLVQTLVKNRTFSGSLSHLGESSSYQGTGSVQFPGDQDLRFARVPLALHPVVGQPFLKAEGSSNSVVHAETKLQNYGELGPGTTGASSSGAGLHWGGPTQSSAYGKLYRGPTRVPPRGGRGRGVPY
Sequence (O75909 whole entry partner, species assumed): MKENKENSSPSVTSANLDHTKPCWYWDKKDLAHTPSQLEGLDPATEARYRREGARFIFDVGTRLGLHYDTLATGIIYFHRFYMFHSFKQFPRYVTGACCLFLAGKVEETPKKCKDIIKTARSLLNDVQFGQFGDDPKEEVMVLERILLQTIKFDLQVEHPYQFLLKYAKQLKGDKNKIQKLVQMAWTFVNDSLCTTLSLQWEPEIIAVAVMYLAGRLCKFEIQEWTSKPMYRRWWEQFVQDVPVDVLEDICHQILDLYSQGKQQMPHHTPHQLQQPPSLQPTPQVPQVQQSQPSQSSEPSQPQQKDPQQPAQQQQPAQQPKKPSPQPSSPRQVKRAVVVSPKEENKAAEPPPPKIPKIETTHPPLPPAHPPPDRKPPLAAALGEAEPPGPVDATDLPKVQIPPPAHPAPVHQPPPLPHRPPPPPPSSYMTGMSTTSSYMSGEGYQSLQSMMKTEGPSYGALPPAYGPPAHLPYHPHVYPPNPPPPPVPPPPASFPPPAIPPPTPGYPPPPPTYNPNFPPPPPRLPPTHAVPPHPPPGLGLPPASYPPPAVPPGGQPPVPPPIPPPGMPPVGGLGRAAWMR
Assay: Cellular CDK12 inhibitory activity assay (Ser2 phosphorylation of RNA polymerase II subunit B1 CTD in MDA-MB-231 cells)
Format: cell-based
Design: using MDA-MB-231 breast cancer cells; endogenous in cells; host or cells: MDA-MB-231
Conditions: MDA-MB-231 cells, 6 hours treatment; read-out: pRpbl CTD S2 IC50
pIC50: −log10 of the molar value.
readout: pIC50

The cases that follow already have their pIC50 on record.
[[record]]
molecule = "Nc1ncc(-c2cc(NCc3nc4cc(Cl)c(Cl)cc4[nH]3)c3ncc(C(F)(F)F)n3n2)cn1 [Example 40]"
target = "CDK12 (Homo sapiens)"
readout = "pIC50"
result_value = "> 6.52"

[[record]]
molecule = "OC1CCN(c2cc(NCc3nc4ccc(F)c(F)c4[nH]3)c3ncc(C(F)(F)F)n3n2)CC1 [Example 19]"
target = "CDK12 (Homo sapiens)"
readout = "pIC50"
result_value = "5.52 to 6.52"

[[record]]
molecule = "COc1cc2nc(CNc3cc(N4CCOCC4)nn4c(C(F)(F)F)cnc34)[nH]c2cc1Cl [Example 71]"
target = "CDK12 (Homo sapiens)"
readout = "pIC50"
result_value = "> 6.52"

[[record]]
molecule = "CN1C2CCC1CN(c1cc(NCc3nc4cc(Cl)c(Cl)cc4[nH]3)c3ncc(C(F)(F)F)n3n1)C2 [Example 33]"
target = "CDK12 (Homo sapiens)"
readout = "pIC50"
result_value = "> 6.52"

[[record]]
molecule = "FC(F)(F)c1cnc2c(NCc3nc4ccncc4[nH]3)cc(N3CCOCC3)nn12 [Example 74]"
target = "CDK12 (Homo sapiens)"
readout = "pIC50"
result_value = "5.52 to 6.52"

[[record]]
molecule = "O=C(CO)C1CCN(c2cc(NCc3nc4cc(Cl)c(Cl)cc4[nH]3)c3ncc(C(F)(F)F)n3n2)CC1 [Example 114]"
target = "CDK12 (Homo sapiens)"
readout = "pIC50"
result_value = "> 6.52"


Exercise: What does the data say about its pIC50? Entry: CCc1cnc2c(NCc3nc4ccc(F)c(F)c4[nH]3)cc(N3CCOCC3)nn12 [Example 5]
Key: 5.52 to 6.52

Exercise: Lookup CC#Cc1cnc2c(NCc3nc4ccc(F)c(F)c4[nH]3)cc(N3CCOCC3)nn12 [Example 24]
Key: < 5.52

Exercise: Lookup CC(C)c1cnc2c(NCc3nc4ccc(F)c(F)c4[nH]3)cc(N3CCOCC3)nn12 [Example 3]
Key: 5.52 to 6.52

Exercise: Lookup OC1CN(c2cc(NCc3nc4ccc(F)c(F)c4[nH]3)c3ncc(C(F)(F)F)n3n2)C1 [Example 16]
Key: 5.52 to 6.52

Exercise: Lookup N#CC1CN(c2cc(NCc3nc4ccc(F)c(F)c4[nH]3)c3ncc(C(F)(F)F)n3n2)C1 [Example 54]
Key: 5.52 to 6.52

Exercise: Lookup FC(F)(F)c1cnc2c(NCc3nc4cc(Cl)c(Cl)cc4[nH]3)cc(N3CC4CC(C4)C3)nn12 [Example 31]
Key: 5.52 to 6.52

Exercise: Lookup FC(F)(F)c1cnc2c(NCc3cn4ccccc4n3)cc(N3CCOCC3)nn12 [Example 82]
Key: 5.52 to 6.52

Exercise: Lookup CC(C)(O)C1CN(c2cc(NCc3nc4cc(Cl)c(Cl)cc4[nH]3)c3ncc(C(F)(F)F)n3n2)C1 [Example 48]
Key: > 6.52

Exercise: Lookup C[C@@H]1CN(c2cc(NCc3nc4cc(Cl)c(Cl)cc4[nH]3)c3ncc(C(F)(F)F)n3n2)C[C@H](C)N1 [Example 39]
Key: > 6.52

Exercise: Lookup CC1(O)CCN(c2cc(NCc3nc4cc(Cl)c(Cl)cc4[nH]3)c3ncc(C(F)(F)F)n3n2)CC1 [Example 53]
Key: > 6.52
